# tested on: Nav 1.7 (Homo sapiens (Human), UniProt Q15858)
# Sequence (Q15858 whole entry): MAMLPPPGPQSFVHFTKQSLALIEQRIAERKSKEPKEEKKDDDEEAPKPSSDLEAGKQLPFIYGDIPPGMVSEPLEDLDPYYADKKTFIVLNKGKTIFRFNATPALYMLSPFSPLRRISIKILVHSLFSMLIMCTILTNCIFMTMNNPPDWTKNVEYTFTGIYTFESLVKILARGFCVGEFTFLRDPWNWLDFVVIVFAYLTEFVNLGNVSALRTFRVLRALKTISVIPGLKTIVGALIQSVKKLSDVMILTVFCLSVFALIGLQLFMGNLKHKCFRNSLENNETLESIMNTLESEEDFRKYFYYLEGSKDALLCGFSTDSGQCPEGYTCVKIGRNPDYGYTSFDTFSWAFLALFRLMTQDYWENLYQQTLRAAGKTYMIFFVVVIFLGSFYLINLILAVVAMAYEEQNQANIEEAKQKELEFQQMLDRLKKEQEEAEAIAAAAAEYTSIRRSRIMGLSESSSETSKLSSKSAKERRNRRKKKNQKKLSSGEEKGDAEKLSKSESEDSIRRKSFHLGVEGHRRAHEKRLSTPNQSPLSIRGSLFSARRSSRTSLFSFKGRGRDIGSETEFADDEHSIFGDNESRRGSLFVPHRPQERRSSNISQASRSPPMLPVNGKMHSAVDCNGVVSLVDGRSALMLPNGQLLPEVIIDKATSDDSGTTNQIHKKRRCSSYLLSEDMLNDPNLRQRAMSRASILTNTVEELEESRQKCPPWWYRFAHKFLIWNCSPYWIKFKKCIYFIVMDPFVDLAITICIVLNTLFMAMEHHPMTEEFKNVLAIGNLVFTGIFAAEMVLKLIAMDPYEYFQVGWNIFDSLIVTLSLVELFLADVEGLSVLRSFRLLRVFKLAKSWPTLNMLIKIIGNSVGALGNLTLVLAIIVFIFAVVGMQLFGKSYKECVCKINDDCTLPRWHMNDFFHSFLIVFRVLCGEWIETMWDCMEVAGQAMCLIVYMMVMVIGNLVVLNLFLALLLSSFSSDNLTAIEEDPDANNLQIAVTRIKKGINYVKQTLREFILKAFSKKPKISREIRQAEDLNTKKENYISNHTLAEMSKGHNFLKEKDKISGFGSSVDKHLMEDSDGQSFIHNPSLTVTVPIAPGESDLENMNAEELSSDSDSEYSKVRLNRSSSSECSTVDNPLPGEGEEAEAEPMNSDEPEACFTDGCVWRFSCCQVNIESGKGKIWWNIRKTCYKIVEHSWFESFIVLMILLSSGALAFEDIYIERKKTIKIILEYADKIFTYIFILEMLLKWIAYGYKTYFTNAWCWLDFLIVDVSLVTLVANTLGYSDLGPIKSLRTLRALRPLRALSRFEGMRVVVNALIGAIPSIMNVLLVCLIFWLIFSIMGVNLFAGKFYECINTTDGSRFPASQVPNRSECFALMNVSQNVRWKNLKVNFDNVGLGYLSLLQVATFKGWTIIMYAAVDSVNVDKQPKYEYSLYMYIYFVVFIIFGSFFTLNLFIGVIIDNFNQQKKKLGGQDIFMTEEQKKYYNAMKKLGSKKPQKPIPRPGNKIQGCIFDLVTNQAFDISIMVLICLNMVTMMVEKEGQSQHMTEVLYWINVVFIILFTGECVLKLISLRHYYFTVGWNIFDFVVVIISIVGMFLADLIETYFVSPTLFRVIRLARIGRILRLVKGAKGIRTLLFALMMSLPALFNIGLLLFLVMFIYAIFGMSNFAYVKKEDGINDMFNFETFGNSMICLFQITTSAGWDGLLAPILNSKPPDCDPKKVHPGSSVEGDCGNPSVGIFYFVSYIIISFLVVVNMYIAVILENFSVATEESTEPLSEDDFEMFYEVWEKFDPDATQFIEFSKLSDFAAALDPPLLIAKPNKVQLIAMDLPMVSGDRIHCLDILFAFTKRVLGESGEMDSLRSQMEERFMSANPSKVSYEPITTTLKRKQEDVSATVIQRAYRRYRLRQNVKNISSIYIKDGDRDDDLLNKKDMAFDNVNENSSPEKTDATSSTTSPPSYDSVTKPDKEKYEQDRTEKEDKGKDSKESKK
# protocol description: Nav 1.7 IWQ in vitro assay (IonWorks Quattro population patch-clamp)
# Format: cell-based
# condition parameters: 293 cells stably transfected with Nav 1.7; second part of table; read-out: Nav1.7 IWQ IC50 IP
# Procedure: Nav 1.7 or Nav 1.5 IWQ In Vitro Assay 293 Cells stably transfected with either Nav 1.7 or Nav 1.5 were recorded in population patch-clamp mode with the IonWorks® Quattro automated electrophysiology system in accordance with the manufacturer's specifications (Molecular Devices, LLC, Sunnyvale, Calif.). Sodium channel currents were measured in response to a train of depolarizations that induced successively greater inactivation. […]
pIC50: −log10 of the molar value.
Label TRUE when pIC50 >= 7; otherwise FALSE.

{"cpd smiles": "O=S(=O)(Nc1ncns1)c1ccc2c(NCc3ccccc3)cccc2c1", "classification": "FALSE"}
{"cpd smiles": "COc1cc(C(F)(F)F)ccc1-c1nccc2cc(S(=O)(=O)NC(C)=O)ccc12", "classification": "FALSE"}
{"cpd smiles": "O=S(=O)(Nc1nccs1)c1ccc2c(-c3ccc(C(F)(F)F)cc3Br)nccc2c1", "classification": "TRUE"}
{"cpd smiles": "COc1cc(C(F)(F)F)ccc1-c1nccc2cc(S(=O)(=O)Nc3ncns3)ccc12", "classification": "TRUE"}
